Data credit: patent US20250163043A1

molecular target: CDK9/CycT1 (Homo sapiens); test: ADP-Glo kinase assay on CDK enzymatic activity, CDK9/CycT1; type: biochemical; conditions: 10 concentrations from 10 μM, 4-fold, 60 min room temperature
QUANTITY NAME: IC50 (nM)

>  <SMILES STRING>
CC(C)Nc1nc(C#N)cc2cnc(N[C@H]3CC[C@H](O)C3)cc12

>  <UNIT INFO>
nM

>  <IC50>
1

$$$$

a: CC(C)Nc1nc(C#N)cc2cnc(N[C@H]3CC[C@H](O)C3)nc12
b: N#Cc1cc2cnc(N[C@H]3CCCNC3)cc2c(C2=CCCCC2)n1
c: CC(=O)N1CCN([C@H]2C[C@@H](Nc3ncc4cc(C#N)nc(NC(C)C)c4n3)C2)CC1
Prompt: Arrange by IC50, high to low. Please, when replying, give the labels in the order that was requested.
Completion: c, b, a
(c: 19 nM, b: 7 nM, a: 1 nM)

###

biological target: CDK9/CycT1 (Homo sapiens); experiment: ADP-Glo kinase assay on CDK enzymatic activity, CDK9/CycT1; format: biochemical; conditions: 10 concentrations from 10 μM, 4-fold, 60 min room temperature
QUANTITY NAME: IC50 (nM)

Completed entries (count: 6):
>  <COMPOUND>
CC(C)Nc1nc(C#N)cc2cnc(N[C@H]3C[C@H](O)C3)cc12 [Compound 166]

>  <SUBJECT OF TEST>
CDK9/CycT1 (Homo sapiens)

>  <IC50 [nM]>
2

$$$$
>  <COMPOUND>
CC(C)Nc1nc(C#N)cc2cnc(NC34CC(N)(C3)C4)nc12 [Compound 128]

>  <SUBJECT OF TEST>
CDK9/CycT1 (Homo sapiens)

>  <IC50 [nM]>
2

$$$$
>  <COMPOUND>
N#Cc1cc2cnc(N[C@H]3CC[C@H](N)C3)cc2c(NC2CCCC2)n1 [Compound 49]

>  <SUBJECT OF TEST>
CDK9/CycT1 (Homo sapiens)

>  <IC50 [nM]>
2

$$$$
>  <COMPOUND>
CC(C)Nc1nc(C#N)cc2cnc(N[C@]3(C)C[C@@H](N)C3)nc12 [Compound C27]

>  <SUBJECT OF TEST>
CDK9/CycT1 (Homo sapiens)

>  <IC50 [nM]>
19

$$$$
>  <COMPOUND>
CC(C)Nc1nc(C#N)cc2cnc(N[C@H]3C[C@](C)(O)C3)nc12 [Compound C11]

>  <SUBJECT OF TEST>
CDK9/CycT1 (Homo sapiens)

>  <IC50 [nM]>
1

$$$$
>  <COMPOUND>
CC(=O)N[C@H]1CCC[C@H](C(=O)Nc2cc3c(NC(C)C)nc(C#N)cc3cn2)C1 [Compound 25]

>  <SUBJECT OF TEST>
CDK9/CycT1 (Homo sapiens)

>  <IC50 [nM]>
12

$$$$

A: CC(C)Nc1nc(C#N)cc2cnc(N[C@H]3C[C@@H](N4CCN(C)CC4)C3)nc12 [Compound C23]
B: COCCN[C@H]1CC[C@H](Nc2cc3c(NC(C)C)nc(C#N)cc3cn2)C1 [Compound 56]
Prompt: Given A and B , report the one with the higher recorded IC50. Respond with the label that goes with your answer.
Completion: A
(A: 6 nM, B: 3 nM)

###

target: CDK9/CycT1 (Homo sapiens, UniProt P50750); experiment: ADP-Glo kinase assay on CDK enzymatic activity, CDK9/CycT1; format: biochemical; details: 10 concentrations from 10 μM, 4-fold, 60 min room temperature
Sequence (P50750 whole entry): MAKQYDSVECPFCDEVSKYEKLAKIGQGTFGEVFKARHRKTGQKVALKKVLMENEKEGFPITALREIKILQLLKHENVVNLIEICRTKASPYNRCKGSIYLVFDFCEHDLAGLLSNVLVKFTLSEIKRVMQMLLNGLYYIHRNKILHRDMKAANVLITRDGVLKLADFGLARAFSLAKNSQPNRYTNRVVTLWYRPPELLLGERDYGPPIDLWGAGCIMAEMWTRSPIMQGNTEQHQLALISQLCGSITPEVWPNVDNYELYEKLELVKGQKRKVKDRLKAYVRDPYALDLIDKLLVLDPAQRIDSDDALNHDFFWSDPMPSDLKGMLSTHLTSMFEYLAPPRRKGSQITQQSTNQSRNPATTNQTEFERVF
Sequence (O60563 whole entry partner): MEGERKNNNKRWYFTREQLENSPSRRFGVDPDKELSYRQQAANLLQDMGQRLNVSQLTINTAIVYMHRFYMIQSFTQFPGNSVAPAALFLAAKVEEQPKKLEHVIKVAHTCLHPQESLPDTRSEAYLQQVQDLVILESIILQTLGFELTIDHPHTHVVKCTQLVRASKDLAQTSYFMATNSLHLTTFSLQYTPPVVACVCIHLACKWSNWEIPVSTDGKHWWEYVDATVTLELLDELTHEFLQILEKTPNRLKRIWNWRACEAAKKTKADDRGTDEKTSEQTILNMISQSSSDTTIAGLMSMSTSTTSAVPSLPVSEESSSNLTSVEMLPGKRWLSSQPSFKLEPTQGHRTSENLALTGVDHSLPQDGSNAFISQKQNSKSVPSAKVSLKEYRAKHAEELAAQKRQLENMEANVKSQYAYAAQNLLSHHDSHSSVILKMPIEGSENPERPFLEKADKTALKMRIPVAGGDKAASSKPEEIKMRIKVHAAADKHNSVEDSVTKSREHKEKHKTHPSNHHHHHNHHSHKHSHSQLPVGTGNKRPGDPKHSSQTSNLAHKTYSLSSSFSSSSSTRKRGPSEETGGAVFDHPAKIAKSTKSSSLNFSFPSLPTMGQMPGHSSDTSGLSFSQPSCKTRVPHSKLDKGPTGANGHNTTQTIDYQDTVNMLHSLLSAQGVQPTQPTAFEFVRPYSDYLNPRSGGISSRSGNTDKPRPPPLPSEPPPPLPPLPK
QUANTITY NAME: IC50 (nM)

Completed entries (count: 8):
>  <MOLECULE>
CC(C)Nc1nc(C#N)cc2cnc(N[C@H]3CCNC3)nc12 [Compound 112]

>  <IC50, nM>
17

$$$$
>  <MOLECULE>
CC(C)Nc1nc(C#N)cc2cnc(N[C@H]3CCCC[C@H]3O)cc12 [Compound 160]

>  <IC50, nM>
26

$$$$
>  <MOLECULE>
CCCNc1nc(C#N)cc2cnc(N[C@H]3C[C@H](N)C3)nc12 [Compound C14]

>  <IC50, nM>
2

$$$$
>  <MOLECULE>
N#Cc1cc2cnc(N[C@H]3CC[C@H](N)C3)cc2c(NCC2(C#N)CCOCC2)n1 [Compound 60]

>  <IC50, nM>
29

$$$$
>  <MOLECULE>
N#Cc1cc2cnc(N[C@H]3C[C@@H](O)C3)cc2c(N[C@@H]2CCOC2)n1 [Compound 176]

>  <IC50, nM>
3

$$$$
>  <MOLECULE>
C[C@]1(N)C[C@H](Nc2cc3c(NC4CC4)nc(C#N)cc3cn2)C1 [Compound 210]

>  <IC50, nM>
12

$$$$
>  <MOLECULE>
N#Cc1cc2cnc(N[C@H]3CCCNC3)cc2c(N[C@H]2CCOC2)n1 [Compound 151]

>  <IC50, nM>
8

$$$$
>  <MOLECULE>
CC(=O)N[C@@H]1CC[C@H](Nc2cc3c(NC(C)C)nc(C#N)cc3cn2)C1 [Compound 47]

>  <IC50, nM>
17

$$$$

I: CC(C)(C)Nc1nc(C(F)F)cc2cnc(N[C@H]3C[C@H](O)C3)nc12 [Compound C8]
II: N#Cc1cc2cnc(N[C@H]3CCCNC3)cc2c(OC2CCCC2)n1 [Compound 185]
III: CC(C)Nc1nc(C#N)cc2cnc(N[C@@H]3CCNC3)nc12 [Compound 113]
Prompt: Arrange by IC50, high to low. Please, when replying, give the labels in the order that was requested.
Completion: III, II, I
(III: 9 nM, II: 3 nM, I: 2 nM)

I: CC(C)Nc1nc(C#N)cc2cnc(N[C@H]3C[C@H](N(C)C)C3)nc12 [Compound C24]
II: CC(C)Nc1nc(C#N)cc2cnc(N[C@@H]3CCCNC3)nc12 [Compound C44]
III: CC(C)Nc1nc(C#N)cc2cnc(NC(=O)[C@H]3CCC[C@H](N)C3)cc12 [Compound 27]
IV: CC(C)Nc1nc(C#N)cc2cnc(N[C@H]3C[C@@H](CO)C3)nc12 [Compound C29]
Prompt: Arrange by IC50, high to low. Please, when replying, give the labels in the order that was requested.
Completion: III, II, IV, I
(III: 51 nM, II: 20 nM, IV: 3 nM, I: 2 nM)
